- system: T1, M2-1 (human respiratory syncytial virus …, UniProt P04545 1-194)
- T1 sequence: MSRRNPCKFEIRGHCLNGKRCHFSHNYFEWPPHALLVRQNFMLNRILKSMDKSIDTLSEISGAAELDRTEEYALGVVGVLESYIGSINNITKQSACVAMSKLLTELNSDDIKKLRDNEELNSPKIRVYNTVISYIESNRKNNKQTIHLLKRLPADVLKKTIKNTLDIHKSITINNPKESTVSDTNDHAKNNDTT
- experimental-protocol: EMSA; 0.5 uM RNA; Hill 5.17; EMSA: 20 mM HEPES pH 7.5, 200 mM NaCl, 2 mM TCEP, 5% glycerol, room temperature 1 h, 4% native PAGE, SYBR Gold; SEC: Superdex 200 Increase 10/300, buffer not given
- experimental-conditions: protein: recombinant; tags: N-terminal His6-GFP, cleaved with TEV; chain copies: 4
metric-name: pKd
Keep it numeric: pKd is minus log10 of the concentration in mol/L.

# input Please give measured pKd of the following entry: AAAAAAAAAAAAAAAAAAA (ssRNA) [Poly19A]
# output 5.57
